Biological target: UniProt:P06702
Sequence (P06702 whole entry): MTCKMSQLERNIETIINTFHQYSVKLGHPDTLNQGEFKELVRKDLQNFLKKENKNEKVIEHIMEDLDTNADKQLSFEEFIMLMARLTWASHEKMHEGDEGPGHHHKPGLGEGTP
Test: Titration of S100A9 with compounds followed by intrinsic fluorescence
Details: intrinsic Trp 88 fluorescence, single binding site model; legend: 75 μM S100A9, PBS pH 7.4, 20 °C; method: 1 μM S100A9, 5 nM to 2.4 μM compound, 3 h room temperature; triplicates; read-out: apparent dissociation constant Kd
Non-standard residues stand in square brackets, D forms with d. Residues, ends and D or L forms follow the SMILES beside them. Dopa = N[C@@H](Cc1ccc(O)c(O)c1)C(=O)O
measured_property: Kd
Number first, unit second: that is the form wanted.

// query Retrieve Kd measured for O=C(CN1CCNCCNCCNCC1)N[C@@H](Cc1ccc(O)c(O)c1)C(=O)O and print it.
// result 100 nM

// query Retrieve Kd measured for O=C(O)CC[C@H](NC(=O)CN1CCNCCNCCNCC1)C(=O)N[C@@H](Cc1c[nH]cn1)C(=O)O and print it.
// result 90 nM

// query Retrieve Kd measured for N[C@@H](Cc1ccc(O)c(O)c1)C(=O)N[C@@H](CC(=O)O)C(=O)N[C@@H](Cc1c[nH]cn1)C(=O)O [DOPA-D-H] (H-[Dopa]-Asp-His-OH) and print it.
// result 110 nM
